# System: six V600E BRAF melanoma cell lines
# assayName: Screening of recombinant RTK ligands for ability to confer resistance to BRAFi (PLX4720) or MEKi (PD184352) (Table 4)
# Type: cell-based, human
# Design: scale not given here
# assaySetup: G-361, PLX4720 - 2 uM, ligand 100 ng/ml
measuredEndpoint: ability of recombinant RTK ligand to confer resistance

molecule	numericReadout
BDNF (protein, UniProt P23560 19-247, looked up) Neurotrophic factor BDNF …: APMKEANIRGQGGLAYPGVRTHGTLESVNGPKAGSRGLTSLADTFEHVIEELLDEDQKVRPNEENNKDADLYTSRVMLSSQVPLEPPLLFLLEEYKNYLDAANMSMRVRRHSDPARRGELSVCDSISEWVTAADKKTAVDMSGGTVTVLEKVPVSKGQLKQYFYETKCNPMGYTKEGCRGIDKRHWNSQCRTTQSYVRALTMDSKKRIGWRFIRIDTSCVCTLTIKRGR	0.87
flt-3 ligand (FL) (protein, UniProt P49771 27-235, looked up) Fms-related tyrosine kinase 3 …: TQDCSFQHSPISSDFAVKIRELSDYLLQDYPVTVASNLQDEELCGGLWRLVLAQRWMERLKTVAGSKMQGLLERVNTEIHFVTKCAFQPPPSCLRFVQTNISRLLQETSEQLVALKPWITRQNFSRCLELQCQPDSSTLPPPWSPRPLEATAPTAPQPPLLLLLLLPVGLLLLAAAWCLHWQRTRRRTPRPGEQVPPVPSPQDLLLVEH	0.79
Ephrin-A4 (protein, UniProt P52798 26-170, looked up) Ephrin-A4: LRHVVYWNSSNPRLLRGDAVVELGLNDYLDIVCPHYEGPGPPEGPETFALYMVDWPGYESCQAEGPRAYKRWVCSLPFGHVQFSEKIQRFTPFSLGFEFLPGETYYYISVPTPESSGQCLRLQVSVCCKERKSESAHPVGSPGES	1.02
GDNF (protein, UniProt P39905 78-211, looked up) Glial cell line-derived …: SPDKQMAVLPRRERNRQAAAANPENSRGKGRRGQRGKNRGCVLTAIHLNVTDLGLGYETKEELIFRYCSGSCDAAETTYDKILKNLSRNRRLVSDKVGQACCRPIAFDDDLSFLDDNLVYHILRKHSAKRCGCI	0.79
VEGF-C (protein, UniProt P49767 112-227, looked up) Vascular endothelial growth …: AHYNTEILKSIDNEWRKTQCMPREVCIDVGKEFGVATNTFFKPPCVSVYRCGGCCNSEGLQCMNTSTSYLSKTLFEITVPLSQGPKPVTISFANHTSCRCMSKLDVYRQVHSIIRR	0.88
